Values were extracted from paper PMC4454677.

Experimental Target: recombinant SmPOP (Schistosoma mansoni, UniProt A0A5K4EZK1)
Measurement Notes: biochemical
Format: biochemical
Peptide text beside a SMILES is read from it. * marks the point of attachment. Cbz = O=C(OCc1ccccc1)*; CH2Cl = ClC*
Endpoint Label: Inhibition of rSmPOP activity (in words)

Use the examples below as a reference point.
[[record]]
compound = "Cc1ccc(S(=O)(=O)N[C@@H](Cc2ccccc2)C(=O)CCl)cc1 [TPCK]"
measured = "Partial inhibition"

[[record]]
compound = "C[C@H](NC(=O)OCc1ccccc1)C(=O)N1CCC[C@H]1C(=O)CCl [Z-Ala-Pro-CMK, Z-Ala-Pro-chloromethyl ketone] (Cbz-Ala-Pro-CH2Cl)"
measured = "completely inhibited"

[[record]]
compound = "O=c1oc(Cl)c(Cl)c2ccccc12 [3,4-dichloroisocoumarin]"
measured = "Partial inhibition"

[[record]]
compound = "O=C[C@@H]1CCCN1C(=O)[C@@H]1CCCN1C(=O)OCc1ccccc1 [Z-Pro-Pro-CHO, benzyloxycarbonyl-L-prolyl-L-prolinal] (Cbz-Pro-Pro-aldehyde)"
measured = "completely inhibited"

[[record]]
compound = "Cc1ccc(S(=O)(=O)N[C@@H](CCCCN)C(=O)CCl)cc1 [TLCK, Nα-Tosyl-L-lysine chloromethyl ketone]"
measured = "Partial inhibition"


q: Consider the compound O=S(=O)(F)Cc1ccccc1 [PMSF, phenylmethylsulfonyl fluoride] and give its measured Inhibition of rSmPOP activity (in words).
a: Partial inhibition
